# assay info: E. coli growth modulation, two-sided OD650, primary screen, E. coli filamentation project, strain DRC41, 24 h (AID 1093);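 note: MC1000 strain lacking acrAB efflux and sulA so SOS filamentation is blocked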
# measurement conditions: OD650, 24 h, higher = more signal, called active from +8 up or from −8 down
Calls of active or inactive are those of the source.
Reported z-score values follow for various compounds

| compound | observation type | data value |
| --- | --- | --- |
| C#CCNC(=O)[C@H](Cc1ccccc1)NC(=O)CCC(=O)O | z-score | -0.361 (inactive) |
| O=C1O[C@@H](c2ccccc2)[C@@H](c2ccccc2)N2[C@@H](c3ccc(OCCO)cc3)[C@]3(C(=O)Nc4ccccc43)[C@@H](C(=O)NC[C@H](O)c3ccccc3)[C@H]12 | z-score | -0.46 (inactive) |
| COC(=O)[C@@]1(Cc2ccccc2)[C@H]2c3cc(C(=O)N(C)C)n(CCSCCO)c3C[C@H]2CN1C(=O)c1ccccc1 | z-score | -0.842 (inactive) |
| CCOC(=O)[C@H]1CC=C2CC1C(=O)N1CCC[C@@H]1[C@@H]2O[Si](C)(C)C(C)(C)C (some centres undefined) | z-score | -0.558 (inactive) |
| COC(=O)C=C(CC(O)c1cccc(Cl)c1)OC (centres undefined) | z-score | 0.0753 (inactive) |
| NCCCCCNC(=O)[C@@H]1C[C@@H]2C(=O)N[C@@H](Cc3ccccc3)C(=O)N2[C@@H]1c1cccc(OCCO)c1 | z-score | -0.47 (inactive) |
| CCOC1=C2C(CN(S(=O)(=O)c3ccc(C)cc3)C2c2ccc(C)cc2)C2C(=O)N(c3ccccc3)C(=O)C2C1 (centres undefined) | z-score | 0.0696 (inactive) |
| COCCOC(=O)N1C(=O)[C@@]2(c3cc(C#CC4=CCCCC4)ccc31)[C@H](C(=O)Nc1nc3ccccc3s1)[C@H]1C(=O)O[C@H](c3ccccc3)[C@H](c3ccccc3)N1[C@@H]2c1ccccc1OCCO | z-score | 0.859 (inactive) |

Incoming: Recorded z-score for O=C1c2ccccc2[C@@]2(Cc3ccccc3N(CC(F)(F)F)C2=O)[C@H](c2ccc(CO)cc2)N1Cc1ccccc1Cl , please?
Outgoing: 0.0194 (inactive)

====

# System: XIP peptide (Xip251-270) binding
# assay info: small-molecule binders of XIP peptide, primary screen, biochemical, small-molecule microarray, fluorescence 635/667 nm, 0.1 µg/mL protein (AID 1182)
# measurement conditions: fluorescent protein binding, 635 nm, higher = more signal, called active from +8 up or from −8 down
observation type: composite z-score
When you answer, write just the number.

Solved cases (10 shown):
| compound | composite z-score |
| --- | --- |
| O=C1c2ccccc2[C@@]2(Cc3ccccc3N(CCN3CCOCC3)C2=O)[C@H](c2ccc(CO)cc2)N1Cc1ccccc1 | -0.178 |
| CN1C(=O)C2C=CC(C(O)c3ccc(-c4ccccc4)s3)N(N(c3ccccc3)c3ccccc3)C2C1=O (centres undefined) | 0.254 |
| CCc1oc(CC[C@@H](CO)NC(=O)NCCn2cc(C3(O)CCCCC3)nn2)c(C(=O)OC)c1C(=O)OC | 1.53 |
| O=C1OCCC/C=C\[C@H]2OC34C=CCN(Cn5nnc6ccccc65)C(=O)[C@H]3N(CCCCCCO)C(=O)[C@@H]4C12 (some centres undefined) | -0.0221 |
| CCOC(=O)C1=CCC(c2ccc(C)cc2)N(S(=O)(=O)c2ccc(C)cc2)C1 (centres undefined) | 0.34 |
| CN1C(=O)C2C=CC(C(O)C3CC=CCC3)N(NC(=O)OC(C)(C)C)C2C1=O (centres undefined) | 0.947 |
| CN(C)C(=O)[C@]1(Cc2ccccc2N=[N+]=[N-])N=C(c2ccc(OCCCO)cc2)O[C@@H]1c1ccccc1 | 1.03 |
| COCCCNC(=O)[C@@]1(Cc2ccccc2N=[N+]=[N-])N=C(c2ccc(OCCCO)cc2)O[C@H]1c1ccccc1N=[N+]=[N-] | 0.0041 |
| CC(C)C[C@@H]1NC(=O)[C@H]2C[C@@H](C(=O)NCCCCCCN(C)C)[C@@H](c3ccc(O)cc3)N2C1=O | 1.2 |
| CCCCc1cn(C[C@H](Cc2ccccc2)NC(=O)N[C@H](CO)CCc2oc(C(C)=O)c(C(=O)OC)c2C(=O)OC)nn1 | 0.703 |

Incoming: Test system XIP peptide (Xip251-270) binding; read-out composite z-score; what value for [N-]=[N+]=NCc1ccccc1[C@@H]1OC(c2ccc(OCCCO)cc2)=N[C@]1(CCS(=O)(=O)c1ccccc1)C(=O)NCCN1CCOCC1 ?
Outgoing: 1.16

Incoming: Test system XIP peptide (Xip251-270) binding; read-out composite z-score; what value for C=C[C@H](COC(C)=O)N(C(=O)OC(C)(C)C)S(=O)(=O)c1ccc(Br)cc1 ?
Outgoing: 0.252

Incoming: Test system XIP peptide (Xip251-270) binding; read-out composite z-score; what value for O=C1OCCC/C=C\[C@H]2OC34C=CCN(Cn5nnc6ccccc65)C(=O)[C@H]3N(CCO)C(=O)[C@@H]4C12 (some centres undefined) ?
Outgoing: -0.0143

Incoming: Test system XIP peptide (Xip251-270) binding; read-out composite z-score; what value for CN(C)CCCNC(=O)[C@@]1(c2ccc([N+](=O)[O-])cc2)CC(=O)N(C2CCCCC2)[C@@H]1c1ccc(CO)cc1 ?
Outgoing: -0.209

Measured values drawn from PubChem BioAssay for this set.
